- system.tested: T1, HLA-DR molecule DRB1*1201 (human)
- T1 chain 1: not shown
- T1 chain 2: not shown
- assay.name: radioligand inhibition, purified HLA-DR
- protocol.conditions: remark: other sources report otherwise
pIC50: −log10 of the molar value.

>  <binder>
HNQVRQVPLQRLRIV [Peptide 9019.0034 (Her2/neu.88)]

>  <pIC50>
7.38

$$$$

Data provenance is patent US20100310640A1.
